Recorded values, source patent US20210054094A1.

measured.on: human GPRC5D (human, UniProt Q9NZD1 1-345)
Sequence (Q9NZD1 whole entry): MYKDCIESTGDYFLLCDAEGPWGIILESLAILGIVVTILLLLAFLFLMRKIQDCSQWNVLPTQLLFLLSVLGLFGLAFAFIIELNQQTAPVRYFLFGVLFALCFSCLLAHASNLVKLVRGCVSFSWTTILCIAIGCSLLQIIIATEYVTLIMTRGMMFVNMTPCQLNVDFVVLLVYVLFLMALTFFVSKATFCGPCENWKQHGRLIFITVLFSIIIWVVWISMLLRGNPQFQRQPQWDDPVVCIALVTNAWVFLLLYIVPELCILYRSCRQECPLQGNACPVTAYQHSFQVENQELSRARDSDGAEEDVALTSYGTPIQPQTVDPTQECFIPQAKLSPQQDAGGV
assay.overview: cell-based or functional assay
# maps each entry to its CAR-J2 EC50 (PGLALA-CAR-J activation, L363 target cells)
State just the number; it will be interpreted in µg/mL.

P1AE5743 (antibody, V domains shown) VH: EVQLVESGGGVVQPGRSLRLSCAASGFSFSNYGMAWVRQAPGKGLEWVASISTGGGNTYYRDSVKGRFTISRDNAKNTLYLQMNSLRAEDTAVYYCTRHDRGGLYWGQGTMVTVSS VL: EIVLTQSPGTLSLSPGERATLSCRASKSLLHSNGITYVYWYQQKPGQAPRLLIYRMSNLASGIPDRFSGSGSGTDFTLTISRLEPEDFAVYHCGQLLENPYTFGQGTKLEIK: 0.583
P1AE5750 (antibody, V domains shown) VH: EVQLVESGGGVVQPGRSLRLSCAASGFSFSNYGMAWVRQAPGKGLEWVASISTGGGNTYYADSVKGRFTISRDNAKNTLYLQMNSLRAEDTAVYYCTRHDRGGLYWGQGTMVTVSS VL: DIVMTQSPLSLPVTPGEPASISCRSSKSLLHSNGITYVYWYLQKPGQSPQVLIYRMSNLASGVPDRFSGSGSGTDFTLKISRVEAEDVGVYHCGQLLENPYTFGQGTKLEIK: 0.0206

Now consider the entry below.
Sample P1AE5749 (antibody, V domains shown) VH: QVQLVESGGGVVQPGRSLRLSCAASGFSFSNYGMAWVRQAPGKGLEWVASISTGGGNTYYADSVKGRFTISRDNSKNTLYLQMNSLRAEDTAVYYCTRHDRGGLYWGQGTMVTVSS VL: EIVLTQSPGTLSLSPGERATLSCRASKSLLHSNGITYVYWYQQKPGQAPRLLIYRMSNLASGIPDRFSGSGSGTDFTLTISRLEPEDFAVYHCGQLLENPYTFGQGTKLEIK — what was its CAR-J2 EC50 (PGLALA-CAR-J activation, L363 target cells)? 0.0826
